- system.tested: opiate receptor sites in the CNS
- procedure.summary: Competitive binding to opiate receptor sites in the CNS, rat brain, 3H-Naloxone
- protocol.conditions: brain of the rat, 3H-Naloxone (Table 4); read-out: Affinity IC50
metric.name: IC50 (nM)

compound="CCC(=O)NC1CC(C)N(CCc2ccccc2)CC1C (stereo not shown)" system_tested="opiate receptor sites in the CNS" measurement_unit=nM reading=0.12

---

- system.tested: opiate receptor sites in the CNS
- procedure.summary: Competitive binding to opiate receptor sites in the CNS, rat brain, 3H-Naloxone
- protocol.conditions: Brain of the rate (Table 5, mean; spread in a separate column); read-out: IC50
pIC50: −log10 of the molar value.
metric.name: pIC50

compound="CCC(=O)NC1CC(C)N(CCc2ccccc2)CC1C (stereo not shown)" metric_name=pIC50 reading=9.92

---

- system.tested: opiate receptor sites in the CNS
- procedure.summary: Competitive binding to opiate receptor sites in the CNS, mouse brain
- protocol.conditions: Brain of the mouse (Table 5, mean; spread in a separate column)
metric.name: IC50 (nM)

molecule="CCC(=O)NC1CC(C)N(CCc2ccccc2)CC1C (stereo not shown)" metric_name=IC50 reading=0.1
